Molecular target: Kinesin-like protein KIF11 (Homo sapiens, UniProt P52732)
Sequence (P52732 whole entry): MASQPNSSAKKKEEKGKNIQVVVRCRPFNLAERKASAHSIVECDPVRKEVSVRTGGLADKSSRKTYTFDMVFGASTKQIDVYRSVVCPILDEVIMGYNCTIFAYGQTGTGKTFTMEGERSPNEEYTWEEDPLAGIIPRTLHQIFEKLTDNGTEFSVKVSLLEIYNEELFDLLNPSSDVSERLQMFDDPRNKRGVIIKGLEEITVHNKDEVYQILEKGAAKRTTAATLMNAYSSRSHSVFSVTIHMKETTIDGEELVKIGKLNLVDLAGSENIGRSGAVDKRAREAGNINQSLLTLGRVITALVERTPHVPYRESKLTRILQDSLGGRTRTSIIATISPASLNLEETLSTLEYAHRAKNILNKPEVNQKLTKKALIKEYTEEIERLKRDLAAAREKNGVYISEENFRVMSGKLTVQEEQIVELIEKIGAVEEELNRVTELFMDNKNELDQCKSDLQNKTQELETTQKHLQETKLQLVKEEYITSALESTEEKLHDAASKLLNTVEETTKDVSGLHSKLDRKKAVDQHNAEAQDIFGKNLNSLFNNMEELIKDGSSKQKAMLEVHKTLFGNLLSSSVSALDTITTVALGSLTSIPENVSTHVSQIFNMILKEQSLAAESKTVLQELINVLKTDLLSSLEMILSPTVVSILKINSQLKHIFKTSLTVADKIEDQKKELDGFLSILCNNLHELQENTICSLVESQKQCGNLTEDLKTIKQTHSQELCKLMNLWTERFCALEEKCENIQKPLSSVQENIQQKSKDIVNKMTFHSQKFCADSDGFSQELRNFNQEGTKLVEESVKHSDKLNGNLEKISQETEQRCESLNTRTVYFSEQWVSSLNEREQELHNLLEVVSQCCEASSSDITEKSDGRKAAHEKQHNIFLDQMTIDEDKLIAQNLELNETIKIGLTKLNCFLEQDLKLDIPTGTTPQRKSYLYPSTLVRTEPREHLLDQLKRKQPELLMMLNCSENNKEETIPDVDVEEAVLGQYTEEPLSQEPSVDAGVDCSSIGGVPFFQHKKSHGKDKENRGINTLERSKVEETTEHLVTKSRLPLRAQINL
METRIC_NAME: Kd (µM)
Give just the numeric value; µM need not be written.

Below: 3 molecules and their reported Kd.
[
  {
    "CHEMICAL_SMILES": "COc1ccc(Nc2nc3cc(C(=O)O)ccc3n2Cc2ccccc2OC(F)(F)F)cc1",
    "METRIC_NAME": "Kd",
    "UNITS_LABEL": "µM",
    "VALUE": 3.4
  },
  {
    "CHEMICAL_SMILES": "CS(=O)(=O)c1ccc(Nc2nc3cc(C(N)=O)ccc3n2Cc2ccccc2C(F)(F)F)cc1",
    "METRIC_NAME": "Kd",
    "UNITS_LABEL": "µM",
    "VALUE": 2.5
  },
  {
    "CHEMICAL_SMILES": "NC(=O)c1ccc2c(c1)nc(Nc1ccc(S(N)(=O)=O)cc1)n2Cc1ccccc1C(F)(F)F",
    "METRIC_NAME": "Kd",
    "UNITS_LABEL": "µM",
    "VALUE": 0.6
  }
]

We now examine a further molecule.
Q: Please give measured Kd of the following entry: "COc1ccc(Nc2nc3cc(C(=O)O)ccc3n2Cc2ccccc2OC)cc1"
Ans: 5

Hey, just so you know, these numbers are from BindingDB's records for doi:10.1021/bi1005283.
